FYI, the data here is from ChEMBL document CHEMBL4513216.

assay-overview: Toxicity liver stage against HepG2, at 10uM
Type: cell-based
Design: test concentration 10 uM, cell line HepG2-A16-CD81EGFP
cond: human, HepG2-A16-CD81EGFP cells; read-out: INHIBITION
quantity-name: cytotoxicity at 10 µM (%)

compound: CCc1nnc(CN(CC)C(=O)C2CC(=O)N(C(C)(C)C)C2)o1 (centres undefined)
experimental-result: 1.56
//
compound: CC(=O)N1Cc2ccccc2CC1C(=O)Nc1ccc(N(C)C)cn1 (centres undefined)
experimental-result: -1.92
//
compound: Cc1nc(-c2ccc(NCCc3ccc(O)cc3)nc2)[nH]c(=O)c1C
experimental-result: 20.5
//
compound: O=C(O)Cn1ccc(=O)c2ccccc21
experimental-result: -9.24
//
compound: Cc1nc(CCN)cc(N2CCOc3ccc(Cl)cc3C2)n1
experimental-result: -0.29
//
compound: COc1cccc2c1OCC(CNC(=O)CCCN1CCOCC1)C2 (centres undefined)
experimental-result: 16.6
//
compound: CCc1ccc(CNC[C@H]2C[C@@H](CO)N(C)[C@H]2c2ccccc2F)o1
experimental-result: -3.09
//
compound: Cc1nc2cc(NC(=O)Cn3ncc(N4CCCC4)cc3=O)ccc2s1
experimental-result: 2.01
//
compound: CCN1CC(C(=O)N2CCC(Oc3ccccc3Cl)CC2)CC1=O (centres undefined)
experimental-result: -22.4
//
compound: CSCC(=O)NC1CC(=O)N(CCc2ccccc2)C1 (centres undefined)
experimental-result: -2.1
//
compound: O=C(COc1ccccc1)N(Cc1ccncc1)C1CC1
experimental-result: -46.1
//
compound: Cn1ccc2c(-c3cc(N)nc(N4CCOCC4)n3)ccnc21
experimental-result: -3.67
//
compound: O=C1OCCN1C1CCN(Cc2cc3n(n2)CCCNC3)CC1
experimental-result: 12.7
//
compound: COc1ccccc1C1(CNc2cn[nH]c(=O)c2Cl)CC1
experimental-result: 54.8
//
compound: COCCO[C@H]1CCN(c2ccc(C)nn2)[C@H]1Cc1cnn(C)c1
experimental-result: 2.5
//
compound: CCC(=O)N1CCC(c2nc(N3CCCCC3)ncc2S(C)(=O)=O)CC1
experimental-result: 4.03
//
compound: O=C1CCc2cc(C(=O)NCc3ccc(-n4cncn4)nc3)ccc2N1
experimental-result: -11.5
//
compound: CN1C2(CCN(Cc3ccc(F)cc3)C2)c2ccccc2S1(=O)=O (centres undefined)
experimental-result: 13.5
//
compound: CNC(=O)C1CCCN(C(=O)C2CCC2)C1 (centres undefined)
experimental-result: -4.47

###

assay-overview: Toxicity liver stage against HepG2, at 10uM
Format: cell-based
Parameters: test concentration 10 uM, cell line HepG2-A16-CD81EGFP
cond: human, HepG2-A16-CD81EGFP cells; read-out: INHIBITION
Entries and their cytotoxicity at 10 µM

compound: CCCNC(=O)CNC(=O)CC1CCCc2cc(OC)ccc21 (configuration not stated)
cytotoxicity at 10 µM, %: -4.52
--
compound: CCOc1cc(NC(=O)C2CC(=O)N(c3cccc(OC)c3)C2)ncn1 (configuration not stated)
cytotoxicity at 10 µM, %: -4.31
--
compound: Cc1cc(C)cc(N2CCN(C(=O)C3CN(C)C(=O)N3)CC2=O)c1 (configuration not stated)
cytotoxicity at 10 µM, %: -5.13
--
compound: COCCN1CCC(NCc2c(C(C)C)nn(C)c2N(C)C)CC1
cytotoxicity at 10 µM, %: 11.6
--
compound: CC(=O)N1CCC1c1cc(N2CCSCC2)nc(C)n1 (configuration not stated)
cytotoxicity at 10 µM, %: 6.53
--
compound: CCN1CC(C(=O)NCc2ccnc(-n3cccn3)c2)CC1=O (configuration not stated)
cytotoxicity at 10 µM, %: -9.3
--
compound: CC1c2ncc(Cn3cccn3)n2CCN1Cc1ccccn1 (configuration not stated)
cytotoxicity at 10 µM, %: -106
